target: Alpha-1B adrenergic receptor (Homo sapiens); assay: Displacement of [3H] prazosin from human recombinant adrenergic alpha-1b receptor expressed in […] cells incubated for 60 mins by spectrophotometric analysis
Sequence (P35368 whole entry): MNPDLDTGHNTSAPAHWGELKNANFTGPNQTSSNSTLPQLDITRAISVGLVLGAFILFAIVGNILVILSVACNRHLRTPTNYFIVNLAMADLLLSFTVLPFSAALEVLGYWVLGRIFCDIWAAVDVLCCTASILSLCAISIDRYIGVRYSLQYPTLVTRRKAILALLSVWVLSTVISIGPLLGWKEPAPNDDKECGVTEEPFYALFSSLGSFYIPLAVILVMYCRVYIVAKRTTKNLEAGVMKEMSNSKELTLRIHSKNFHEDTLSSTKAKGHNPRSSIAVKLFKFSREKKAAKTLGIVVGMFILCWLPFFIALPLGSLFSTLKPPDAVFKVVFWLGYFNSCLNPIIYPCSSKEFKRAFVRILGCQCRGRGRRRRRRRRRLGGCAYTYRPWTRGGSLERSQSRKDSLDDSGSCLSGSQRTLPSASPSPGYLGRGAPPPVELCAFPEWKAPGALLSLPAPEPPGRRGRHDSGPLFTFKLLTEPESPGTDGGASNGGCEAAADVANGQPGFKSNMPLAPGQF
Task for the reader: assign each of the following compounds its reported pIC50.
Scale for pIC50: -log10 of concentration given in mol/L; no unit attached.

So what's the measured pIC50 for this one? `CN(C)CCc1c[nH]c2ccccc12.O=C(O)/C=C/C(=O)O`
6.17

For `O=C(O)/C=C/C(=O)O.[2H]C([2H])(Cc1c[nH]c2ccccc12)N(C)C` then?
6.03

----------
molecular target: Neuronal acetylcholine receptor; alpha3/beta4 (Homo sapiens, UniProt P30926+P32297); test: Displacement of [125I]-epibatidine from human recombinant nAChR alpha3beta4 receptor expressed in CHO-K1 cells assessed as inhibition constant incubated for 60 mins by spectrophotometric analysis
Sequence (P30926 whole entry): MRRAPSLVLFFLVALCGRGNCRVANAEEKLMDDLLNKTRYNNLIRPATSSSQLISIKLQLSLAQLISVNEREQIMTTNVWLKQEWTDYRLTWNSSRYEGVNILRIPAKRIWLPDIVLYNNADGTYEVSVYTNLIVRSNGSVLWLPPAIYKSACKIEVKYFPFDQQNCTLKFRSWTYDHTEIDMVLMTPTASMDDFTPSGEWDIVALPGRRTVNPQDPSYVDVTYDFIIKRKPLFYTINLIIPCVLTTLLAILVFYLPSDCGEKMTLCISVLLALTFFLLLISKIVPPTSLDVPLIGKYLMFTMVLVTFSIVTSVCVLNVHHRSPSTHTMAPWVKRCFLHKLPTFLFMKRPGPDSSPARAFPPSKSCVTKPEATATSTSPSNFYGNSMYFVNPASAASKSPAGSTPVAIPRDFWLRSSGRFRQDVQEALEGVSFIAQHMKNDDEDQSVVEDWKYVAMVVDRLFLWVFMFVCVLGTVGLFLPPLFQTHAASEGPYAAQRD
Sequence (P32297 whole entry): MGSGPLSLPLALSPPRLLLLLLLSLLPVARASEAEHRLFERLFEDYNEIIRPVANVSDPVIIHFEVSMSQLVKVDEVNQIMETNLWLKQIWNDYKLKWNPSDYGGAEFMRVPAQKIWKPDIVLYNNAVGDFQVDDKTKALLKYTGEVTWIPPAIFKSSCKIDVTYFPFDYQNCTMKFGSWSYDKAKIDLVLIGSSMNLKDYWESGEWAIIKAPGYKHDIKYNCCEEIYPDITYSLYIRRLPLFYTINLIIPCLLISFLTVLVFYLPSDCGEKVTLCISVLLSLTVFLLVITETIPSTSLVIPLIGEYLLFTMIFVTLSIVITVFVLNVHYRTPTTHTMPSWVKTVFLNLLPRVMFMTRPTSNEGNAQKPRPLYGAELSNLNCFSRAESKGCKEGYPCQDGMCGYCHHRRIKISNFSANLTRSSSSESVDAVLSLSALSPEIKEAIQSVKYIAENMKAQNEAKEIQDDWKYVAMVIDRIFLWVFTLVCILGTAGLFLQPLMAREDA
Task for the reader: assign each of the following molecules its reported pKi.
Scale for pKi: -log10 of concentration given in mol/L; no unit attached.

So what's the measured pKi for this one? `CN(C)CCc1c[nH]c2ccccc12.O=C(O)/C=C/C(=O)O`
5.52

For `O=C(O)/C=C/C(=O)O.[2H]C([2H])(Cc1c[nH]c2ccccc12)N(C)C` then?
5.50

----------
Task for the reader: assign each of the following compounds its reported pIC50.
target: 5-hydroxytryptamine receptor 7 (Homo sapiens); test: Displacement of [3H] LSD from human recombinant 5-HT7 receptor expressed in CHO-K1 cells incubated for 120 mins by spectrophotometric analysis
Sequence (P34969 whole entry): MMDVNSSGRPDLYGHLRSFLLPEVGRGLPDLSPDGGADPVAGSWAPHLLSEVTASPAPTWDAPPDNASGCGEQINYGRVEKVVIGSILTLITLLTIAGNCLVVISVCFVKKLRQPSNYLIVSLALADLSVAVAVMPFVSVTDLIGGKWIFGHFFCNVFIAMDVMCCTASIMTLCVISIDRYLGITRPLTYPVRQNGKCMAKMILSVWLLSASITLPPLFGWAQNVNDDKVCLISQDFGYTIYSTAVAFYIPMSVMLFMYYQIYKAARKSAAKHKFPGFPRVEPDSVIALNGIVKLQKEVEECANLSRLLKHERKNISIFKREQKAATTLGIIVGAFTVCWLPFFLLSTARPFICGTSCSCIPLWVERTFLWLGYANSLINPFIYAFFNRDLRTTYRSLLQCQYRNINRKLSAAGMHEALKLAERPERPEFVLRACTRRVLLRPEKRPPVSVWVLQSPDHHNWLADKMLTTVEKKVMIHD
Scale for pIC50: -log10 of concentration given in mol/L; no unit attached.

So what's the measured pIC50 for this one? `O=C(O)/C=C/C(=O)O.[2H]C([2H])(Cc1c[nH]c2ccccc12)N(C)C`
7.05

For `CN(C)CCc1c[nH]c2ccccc12.O=C(O)/C=C/C(=O)O` then?
6.92

----------
test: Metabolic stability in human hepatocytes assessed as intrinsic clearance measured per million cells incubated upto 60 mins by LC-MS/MS analysis; assay type: ADME, cell-based, Hepatocyte; settings: read-out: CLH
Task for the reader: assign each of the following molecules its reported hepatocyte CLint.
Just the number in µL/min/1e6 cells, nothing appended.

So what's the measured hepatocyte CLint for this one? `CN(C)CCc1c[nH]c2ccccc12.O=C(O)/C=C/C(=O)O`
16.6

For `O=C(O)/C=C/C(=O)O.[2H]C([2H])([2H])N(C([2H])([2H])[2H])C([2H])([2H])Cc1c[nH]c2ccccc12` then?
9.3

For `O=C(O)/C=C/C(=O)O.[2H]C([2H])(Cc1c[nH]c2ccccc12)N(C)C` then?
7.3

For `O=C(O)/C=C/C(=O)O.[2H]C([2H])([2H])N(CCc1c[nH]c2ccccc12)C([2H])([2H])[2H]` then?
15.2

----------
target: Alpha-1A adrenergic receptor (Homo sapiens, UniProt P35348); experiment: Displacement of [3H] prazosin from human recombinant adrenergic alpha-1a receptor expressed in […] cells assessed as inhibition constant incubated for 60 mins by spectrophotometric analysis
Sequence (P35348 whole entry): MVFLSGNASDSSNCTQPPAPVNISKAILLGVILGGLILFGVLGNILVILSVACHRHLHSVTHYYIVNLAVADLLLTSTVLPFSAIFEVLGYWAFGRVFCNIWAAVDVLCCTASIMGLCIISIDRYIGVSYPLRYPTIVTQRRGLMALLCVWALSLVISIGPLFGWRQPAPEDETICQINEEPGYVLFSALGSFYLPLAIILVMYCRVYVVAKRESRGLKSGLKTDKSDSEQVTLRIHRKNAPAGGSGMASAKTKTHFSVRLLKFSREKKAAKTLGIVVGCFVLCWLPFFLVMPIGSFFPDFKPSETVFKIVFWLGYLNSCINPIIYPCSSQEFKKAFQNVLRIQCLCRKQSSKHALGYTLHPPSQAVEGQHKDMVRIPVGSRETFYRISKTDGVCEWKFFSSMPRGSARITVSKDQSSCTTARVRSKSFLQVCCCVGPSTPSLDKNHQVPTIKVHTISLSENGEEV
Task for the reader: assign each of the following molecules its reported Ki.
Just the number in nM, nothing appended.

So what's the measured Ki for this one? `CN(C)CCc1c[nH]c2ccccc12.O=C(O)/C=C/C(=O)O`
280

For `O=C(O)/C=C/C(=O)O.[2H]C([2H])(Cc1c[nH]c2ccccc12)N(C)C` then?
480

----------
assay: Metabolic stability in human hepatocytes assessed as half life measured per million cells incubated upto 60 mins by LC-MS/MS analysis; assay type: ADME, cell-based, Hepatocyte
Task for the reader: assign each of the following compounds its reported half-life.
Just the number in min, nothing appended.

So what's the measured half-life for this one? `O=C(O)/C=C/C(=O)O.[2H]C([2H])([2H])N(C([2H])([2H])[2H])C([2H])([2H])Cc1c[nH]c2ccccc12`
207

For `O=C(O)/C=C/C(=O)O.[2H]C([2H])([2H])N(CCc1c[nH]c2ccccc12)C([2H])([2H])[2H]` then?
117

For `O=C(O)/C=C/C(=O)O.[2H]C([2H])(Cc1c[nH]c2ccccc12)N(C)C` then?
223

For `CN(C)CCc1c[nH]c2ccccc12.O=C(O)/C=C/C(=O)O` then?
190

The measured values listed here are drawn from ChEMBL document CHEMBL5370593.
